system-tested: Tyrosine-protein kinase SYK (Homo sapiens, UniProt P43405)
assay-notes: Inhibition of Syk in anti IgM-stimulated human Ramos cells assessed as BLNK phosphorylation by cellular assay
Param label: returns Criterion met when IC50 < 60 nM, returns Criterion not met otherwise, including exact equality.

Below are worked cases with known answers.
[[record]]
record_smiles = "N[C@H]1CCCC[C@H]1Nc1cc2nc[nH]c(=O)c2c(Nc2cccc(-n3nccn3)c2)n1"
discrete_label = "Criterion not met"

[[record]]
record_smiles = "Cc1c[nH]c2c(Nc3nc(N[C@@H]4CCCC[C@@H]4N)cc4cc[nH]c(=O)c34)cccc12"
discrete_label = "Criterion not met"

[[record]]
record_smiles = "N[C@H]1COCC[C@H]1Nc1cc2cc[nH]c(=O)c2c(Nc2cccc3cc[nH]c23)n1"
discrete_label = "Criterion met"

[[record]]
record_smiles = "N[C@H]1CCCC[C@H]1Nc1cc2nc[nH]c(=O)c2c(Nc2cccc3[nH]ccc23)n1"
discrete_label = "Criterion met"


// next entry
Request: Consider `N[C@H]1CCCC[C@H]1Nc1cc2cc[nH]c(=O)c2c(Nc2cccc3c(Cl)c[nH]c23)n1` . Does its IC50 lie strictly below 60 nM?
Response: Criterion not met

###

Let's look at some compounds and their measured IC50.
system-tested: UniProt P43405
assay-notes: Inhibition of Syk in human whole blood assessed as inhibition of P-SLP76 in CD14+ monocytes by flow cytometry
Please give a number only; it is taken to be in nM.

Request: Give a short answer stating reported IC50 for `Cc1c[nH]c2c(Nc3nc(N[C@@H]4CCOC[C@@H]4N)cc4nc[nH]c(=O)c34)cccc12` .
Response: 299

Request: Give reported IC50 value for `N[C@H]1CCCC[C@H]1Nc1cc2nc[nH]c(=O)c2c(Nc2cccc3[nH]ccc23)n1`
Response: 322

Request: Provide one value: measured IC50 of `Cc1c[nH]c2c(Nc3nc(N[C@@H]4CCCC[C@@H]4N)cc4cc[nH]c(=O)c34)cccc12`
Response: 430

Request: Read off the recorded IC50 for `Cc1c[nH]c2c(Nc3nc(N[C@@H]4CCCC[C@@H]4N)cc4nc[nH]c(=O)c34)cccc12`
Response: 805

###

Listing of recorded pIC50 by entry.
system-tested: Tyrosine-protein kinase SYK (Homo sapiens, UniProt P43405)
assay-notes: Inhibition of Syk (unknown origin) using 4 uM peptide assessed as product formation after 60 mins incubation by microfluidic mobility shift assay
Scale explanation: pIC50 corresponds to minus log10 of a concentration expressed in moles per litre.

Below are worked cases with known answers.
[[record]]
record_smiles = "C[C@H](N)CNc1cc2nc[nH]c(=O)c2c(Nc2cccc3cc[nH]c23)n1"
measured_number = 7.68

[[record]]
record_smiles = "N[C@H]1COCC[C@H]1Nc1cc2nc[nH]c(=O)c2c(Nc2cccc3cc[nH]c23)n1"
measured_number = 7.70


Here is another compound to look at.
Request: Given `O=c1[nH]cnc2cc(N[C@@H]3CCCNC3)nc(Nc3cccc4cc[nH]c34)c12` , respond with its pIC50.
Response: 6.78

###

system-tested: Voltage-gated inwardly rectifying potassium channel KCNH2 (Homo sapiens, UniProt Q12809)
Sequence (Q12809 whole entry): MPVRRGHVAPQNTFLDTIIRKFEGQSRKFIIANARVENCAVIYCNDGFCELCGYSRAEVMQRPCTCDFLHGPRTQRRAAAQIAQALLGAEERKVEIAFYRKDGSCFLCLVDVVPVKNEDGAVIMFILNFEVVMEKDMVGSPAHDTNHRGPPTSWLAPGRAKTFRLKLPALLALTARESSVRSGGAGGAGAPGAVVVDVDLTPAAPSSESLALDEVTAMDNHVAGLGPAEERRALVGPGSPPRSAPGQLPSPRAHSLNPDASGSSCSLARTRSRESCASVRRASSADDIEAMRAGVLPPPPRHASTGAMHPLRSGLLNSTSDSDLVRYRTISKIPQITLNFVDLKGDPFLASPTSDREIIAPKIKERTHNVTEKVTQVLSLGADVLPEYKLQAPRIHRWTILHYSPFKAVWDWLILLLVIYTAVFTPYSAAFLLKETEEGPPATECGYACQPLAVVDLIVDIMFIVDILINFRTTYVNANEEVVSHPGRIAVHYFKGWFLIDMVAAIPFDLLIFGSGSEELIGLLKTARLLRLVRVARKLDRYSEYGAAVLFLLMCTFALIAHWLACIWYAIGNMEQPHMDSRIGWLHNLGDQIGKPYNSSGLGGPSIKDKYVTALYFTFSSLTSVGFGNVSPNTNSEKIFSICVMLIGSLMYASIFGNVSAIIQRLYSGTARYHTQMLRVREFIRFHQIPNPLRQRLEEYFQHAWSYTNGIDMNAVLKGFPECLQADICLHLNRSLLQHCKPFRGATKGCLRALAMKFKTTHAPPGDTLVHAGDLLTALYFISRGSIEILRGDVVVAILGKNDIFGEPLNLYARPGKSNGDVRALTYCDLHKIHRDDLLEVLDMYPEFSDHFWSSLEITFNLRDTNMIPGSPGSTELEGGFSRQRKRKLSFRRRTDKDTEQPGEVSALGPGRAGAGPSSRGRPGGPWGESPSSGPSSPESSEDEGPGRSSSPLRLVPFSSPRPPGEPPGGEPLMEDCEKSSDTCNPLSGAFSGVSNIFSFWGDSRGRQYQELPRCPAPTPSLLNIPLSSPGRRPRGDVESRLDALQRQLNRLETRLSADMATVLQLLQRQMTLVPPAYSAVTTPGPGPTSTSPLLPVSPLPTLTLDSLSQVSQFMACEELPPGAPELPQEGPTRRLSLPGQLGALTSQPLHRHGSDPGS
assay-notes: Inhibition of human ERG by Q-patch assay
parameter-measured: IC50

[[record]]
record_smiles = "Cc1c[nH]c2c(Nc3nc(N[C@@H]4CCCC[C@@H]4N)cc4nc[nH]c(=O)c34)cccc12"
result = "> 30 µM"


Request: Provide one value: measured IC50 of `Cc1c[nH]c2c(Nc3nc(N[C@@H]4CCOC[C@@H]4N)cc4nc[nH]c(=O)c34)cccc12`
Response: > 30 µM

Request: Dear colleague, please send me the reported IC50 for `Cn1cc2c(Nc3nc(N[C@@H]4CCOC[C@@H]4N)cc4cc[nH]c(=O)c34)cccc2n1` when you can.
Response: > 30 µM
